Below: a set of entries, each annotated with reported inhibition at 0.1 µM.
- TEST_TARGET: α5-GABAA receptor (Homo sapiens, UniProt P18507+P31644)
- Construct: expressed in transfected cells; host or cells: HEK293, monoclonal stably transfected line
- Sequence (P31644 32-462): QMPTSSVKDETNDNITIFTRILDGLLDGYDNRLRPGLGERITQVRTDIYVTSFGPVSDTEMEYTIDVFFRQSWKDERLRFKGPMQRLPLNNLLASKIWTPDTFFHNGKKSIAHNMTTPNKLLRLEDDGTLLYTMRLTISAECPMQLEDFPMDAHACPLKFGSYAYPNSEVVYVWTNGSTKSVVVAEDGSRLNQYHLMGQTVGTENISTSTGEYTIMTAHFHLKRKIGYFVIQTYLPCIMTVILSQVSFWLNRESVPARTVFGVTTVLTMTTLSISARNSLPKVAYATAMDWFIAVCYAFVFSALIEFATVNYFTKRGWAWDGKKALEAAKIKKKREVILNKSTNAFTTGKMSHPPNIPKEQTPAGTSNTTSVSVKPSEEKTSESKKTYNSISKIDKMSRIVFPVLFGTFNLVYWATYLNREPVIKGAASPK
- Sequence (P28472 26-473 partner): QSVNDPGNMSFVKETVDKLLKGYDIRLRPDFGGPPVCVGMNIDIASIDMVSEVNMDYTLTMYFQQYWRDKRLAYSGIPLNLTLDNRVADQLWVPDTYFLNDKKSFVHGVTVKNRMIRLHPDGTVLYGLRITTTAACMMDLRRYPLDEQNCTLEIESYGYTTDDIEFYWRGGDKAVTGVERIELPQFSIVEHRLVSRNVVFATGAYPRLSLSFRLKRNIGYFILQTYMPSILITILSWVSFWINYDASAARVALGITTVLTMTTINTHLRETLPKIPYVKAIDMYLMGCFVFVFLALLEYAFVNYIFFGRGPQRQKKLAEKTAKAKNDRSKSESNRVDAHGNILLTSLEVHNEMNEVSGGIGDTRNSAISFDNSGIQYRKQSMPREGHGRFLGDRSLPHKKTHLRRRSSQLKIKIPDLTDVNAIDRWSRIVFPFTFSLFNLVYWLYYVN
- Sequence (P18507 40-467 isoform P18507-1 limits assumed): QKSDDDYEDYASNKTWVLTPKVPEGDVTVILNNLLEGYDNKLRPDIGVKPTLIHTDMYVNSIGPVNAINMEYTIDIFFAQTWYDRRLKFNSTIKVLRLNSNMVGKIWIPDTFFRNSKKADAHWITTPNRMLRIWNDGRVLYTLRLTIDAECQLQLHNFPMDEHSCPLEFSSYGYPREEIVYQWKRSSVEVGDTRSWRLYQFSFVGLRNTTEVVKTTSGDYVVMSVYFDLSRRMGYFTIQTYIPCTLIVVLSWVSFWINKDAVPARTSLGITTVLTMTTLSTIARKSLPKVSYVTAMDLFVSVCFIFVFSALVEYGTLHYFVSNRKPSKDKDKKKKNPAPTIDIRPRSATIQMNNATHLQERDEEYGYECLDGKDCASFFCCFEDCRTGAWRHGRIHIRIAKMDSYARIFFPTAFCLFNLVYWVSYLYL
- ASSAY_PROCEDURE: Cell-level screening: whole cell patch clamp, inverse agonist efficacy on α5-GABAA receptor expressed in HEK293
- Assay type: cell-based
- CONDITION_NOTES: drug 100 nM, GABA 0.05 μM, HEK293 expressing α5, β3 and γ2 subunits, clamped at −60 mV; read-out: Compound inverse agonist efficacy %
QUANTITY_MEASURED: inhibition at 0.1 µM (%)

compound="COCC(C)Oc1ccc(COc2nn3c(-c4cc(C)on4)nnc3cc2OC)nn1 (stereo not shown)" quantity_measured="inhibition at 0.1 µM" value_measured=53.1
compound=COc1cc2nnc(-c3cc(C)on3)n2nc1OCc1ccc(OCCN2CCN(C)CC2)nn1 quantity_measured="inhibition at 0.1 µM" value_measured=45.2
compound=COc1cc2nnc(-c3cc(C)on3)n2nc1OCc1ccc2c(n1)CCN(C1CC(F)(F)C1)C2 quantity_measured="inhibition at 0.1 µM" value_measured=33.9
compound=COCc1cccc(COc2nn3c(-c4cc(C)on4)nnc3cc2OC)n1 quantity_measured="inhibition at 0.1 µM" value_measured=38.8

---

- TEST_TARGET: α5-GABAA receptor (Homo sapiens, UniProt P18507+P31644)
- Construct: expressed in transfected cells; host or cells: HEK293, monoclonal stably transfected line
- ASSAY_PROCEDURE: Cell-level screening: whole cell patch clamp, inverse agonist efficacy on α5-GABAA receptor expressed in HEK293
- Assay type: cell-based
- CONDITION_NOTES: drug 100 nM, GABA 0.05 μM, HEK293 expressing α5, β3 and γ2 subunits, clamped at −60 mV; read-out: Compound inverse agonist efficacy %
Below: a set of entries, each annotated with reported inhibition at 0.1 µM.
QUANTITY_MEASURED: inhibition at 0.1 µM (%)

compound="COc1cc2nnc(-c3cc(C)on3)n2nc1OCc1ccc2c(n1)CCNC2 [Embodiment 78]" quantity_measured="inhibition at 0.1 µM" uom=% value_measured=43.4
compound="COc1cc2nnc(-c3cc(C)on3)n2nc1OCc1ccc2c(cnn2C2CN(C)C2)n1 [Embodiment 234]" quantity_measured="inhibition at 0.1 µM" uom=% value_measured=53.2
compound="COc1cc2nnc(-c3cc(C)on3)n2nc1OCc1ccncn1 [Embodiment 31]" quantity_measured="inhibition at 0.1 µM" uom=% value_measured=34.1
compound="COc1cc2nnc(-c3cc(C)on3)n2nc1OCc1ccc2c(n1)CCN(Cc1ncccn1)C2=O [Embodiment 88]" quantity_measured="inhibition at 0.1 µM" uom=% value_measured=32.5
compound="COc1cc2nnc(-c3cc(C)on3)n2nc1OCc1ccc2c(n1)CCN(c1nnc(C)o1)C2 [Embodiment 192]" quantity_measured="inhibition at 0.1 µM" uom=% value_measured=40.8
compound="Cc1cc(-c2nnc3cc(OCC4CC4)c(OCc4ccccn4)nn23)no1 [Embodiment 14]" quantity_measured="inhibition at 0.1 µM" uom=% value_measured=19.4
compound="COc1cc2nnc(-c3cc(C)on3)n2nc1OCc1ccc2c(n1)CCN(C1CCOCC1)C2 [Embodiment 186]" quantity_measured="inhibition at 0.1 µM" uom=% value_measured=56
compound="COc1cc2nnc(-c3cc(C)on3)n2nc1OCc1ccc2c(n1)CN(C1CCOCC1)C2 [Embodiment 253]" quantity_measured="inhibition at 0.1 µM" uom=% value_measured=56.1

---

- ASSAY_PROCEDURE: Thermodynamic solubility in simulated intestinal fluid (TS in FaSSIF)
- Format: physicochemical
- CONDITION_NOTES: thermodynamic from solid, 37° C.
Below: a set of entries, each annotated with reported log10(solubility thermodynamic at 4 h).
QUANTITY_MEASURED: log10(solubility thermodynamic at 4 h) (log10 of the value in µg/mL)

compound=COc1cc2nnc(-c3cc(C)on3)n2nc1OCc1cccnn1 value_measured=2.26
compound=COc1ccc(COc2nn3c(-c4cc(C)on4)nnc3cc2OC)nn1 value_measured=1.69
compound=COc1cc2nnc(-c3cc(C)on3)n2nc1OCc1ccc(OC2CCOCC2)nn1 value_measured=1.64
compound="COc1cc2nnc(-c3cc(C)on3)n2nc1OCc1ccc2nn(C3CCOC3)cc2n1 (stereo not drawn)" value_measured=1.49
compound=COc1cc2nnc(-c3cc(C)on3)n2nc1OCc1ccc2c(n1)CCN(CC1(C)COC1)C2 value_measured=2.36
compound="COc1cc2nnc(-c3cc(C)on3)n2nc1OCc1cccc(C2CCCNC2)n1 (stereo not drawn)" value_measured=2.51
compound=COc1cc2nnc(-c3cc(C)on3)n2nc1OCc1ccc2nnc(C(C)C)n2n1 value_measured=2.37
compound=COCc1ccc(COc2nn3c(-c4cc(C)on4)nnc3cc2OC)nc1 value_measured=2.42
compound=COc1cc2nnc(-c3cc(C)on3)n2nc1OCc1ccccn1 value_measured=1.51
compound=COc1cc2nnc(-c3cc(C)on3)n2nc1OCc1ccc2c(n1)CCN(C(=O)N1CCOCC1)C2 value_measured=1.51
compound=COCCCN1CCc2nc(COc3nn4c(-c5cc(C)on5)nnc4cc3OC)ccc2C1=O value_measured=2.33
compound="COc1cc2nnc(-c3cc(C)on3)n2nc1OCc1cccc(C2CCCN(C3COC3)C2)n1 (stereo not drawn)" value_measured=1.68
compound="COc1cc2nnc(-c3cc(C)on3)n2nc1OCc1ccc(OCC2CCOC2)nn1 (stereo not drawn)" value_measured=2.37
compound=COc1cc2nnc(-c3cc(C)on3)n2nc1OCc1ccc(OCC2(C)COC2)cn1 value_measured=1.82
compound=COc1cc2nnc(-c3cc(C)on3)n2nc1OCc1ccc(OCCN2CCOCC2)nn1 value_measured=2.49
compound=COc1cc2nnc(-c3cc(C)on3)n2nc1OCc1ccc(C(=O)O)cn1 value_measured=2.49
compound=COc1cc2nnc(-c3cc(C)on3)n2nc1OCc1ccc2nn(C3CN(C)C3)cc2n1 value_measured=2.39
compound=COc1cc2nnc(-c3cc(C)on3)n2nc1OCc1ccc2c(n1)CCN(C(=O)C(C)(C)C)C2 value_measured=1.54
compound=COc1cc2nnc(-c3cc(C)on3)n2nc1OCc1ccc2c(n1)CCN(Cc1cc(C)on1)C2 value_measured=2.25
compound=COCCN1CCc2nc(COc3nn4c(-c5cc(C)on5)nnc4cc3OC)ccc2C1 value_measured=2.29
compound=COc1cc2nnc(-c3cc(C)on3)n2nc1OCc1ccc2c(n1)CCN(C1(CC#N)COC1)C2 value_measured=2.14
compound=COCCCOc1ccc(COc2nn3c(-c4noc(C)n4)nnc3cc2OC)nn1 value_measured=1.93
compound=COc1cc2nnc(-c3cc(C)on3)n2nc1OCc1ccc2c(n1)CCN(C(=O)N(C)C)C2 value_measured=2.42
compound=COCCN1Cc2ccc(COc3nn4c(-c5cc(C)on5)nnc4cc3OC)nc2C1 value_measured=2.35
compound=COc1cc2nnc(-c3cc(C)on3)n2nc1OCc1ccc2c(n1)CCN(C1COC1)C2=O value_measured=1.81
compound=CCN1CCc2nc(COc3nn4c(-c5cc(C)on5)nnc4cc3OC)ccc2C1=O value_measured=1.73
compound=COc1cc2nnc(-c3cc(C)on3)n2nc1OCc1ccc2c(n1)CCN(C(=O)NCC(F)(F)F)C2 value_measured=1.53
compound=COc1cc2nnc(-c3cc(C)on3)n2nc1OCc1ccn2c(C3CCOCC3)nnc2n1 value_measured=1.76
compound=COCc1cn2nc(COc3nn4c(-c5cc(C)on5)nnc4cc3OC)ccc2n1 value_measured=1.48
compound=COc1cc2nnc(-c3cc(C)on3)n2nc1OCc1ccc2c(n1)CCN(CC(=O)N(C)C)C2 value_measured=2.30
compound=COc1cc2nnc(-c3cc(C)on3)n2nc1OCc1ccc2c(n1)CCN(Cc1ncccn1)C2=O value_measured=1.78
compound=COCCCC(=O)N1CCc2nc(COc3nn4c(-c5cc(C)on5)nnc4cc3OC)ccc2C1 value_measured=2.50
compound=COc1cc2nnc(-c3cc(C)on3)n2nc1OCc1ccncn1 value_measured=1.64

---

- TEST_TARGET: α5-GABAA receptor (Homo sapiens, UniProt P18507+P31644)
- Construct: expressed in transfected cells; host or cells: HEK293, monoclonal stably transfected line
- ASSAY_PROCEDURE: Cell-level screening: whole cell patch clamp, inverse agonist efficacy on α5-GABAA receptor expressed in HEK293
- Type: cell-based
- CONDITION_NOTES: drug 100 nM, GABA 0.05 μM, HEK293 expressing α5, β3 and γ2 subunits, clamped at −60 mV; read-out: Compound inverse agonist efficacy %
QUANTITY_MEASURED: inhibition at 0.1 µM (%)

compound=COc1cc2nnc(-c3cc(C)on3)n2nc1OCc1cccc(C)n1 test_target="α5-GABAA receptor (Homo sapiens, UniProt P18507+P31644)" value_measured=31.1
compound=COc1cc2nnc(-c3cc(C)on3)n2nc1OCc1ccc(OCCCC#N)nn1 test_target="α5-GABAA receptor (Homo sapiens, UniProt P18507+P31644)" value_measured=42
compound=COc1cc2nnc(-c3cc(C)on3)n2nc1OCc1ccc2c(n1)CCN(CC13CC(C#N)(C1)C3)C2 test_target="α5-GABAA receptor (Homo sapiens, UniProt P18507+P31644)" value_measured=41.5
compound=COCCn1ccc2nc(COc3nn4c(-c5noc(C)n5)nnc4cc3OC)ccc2c1=O test_target="α5-GABAA receptor (Homo sapiens, UniProt P18507+P31644)" value_measured=39.9
compound=COc1cc2nnc(-c3cc(C)on3)n2nc1OCc1ccc2c(n1)CNC2 test_target="α5-GABAA receptor (Homo sapiens, UniProt P18507+P31644)" value_measured=38
compound="COc1cc2nnc(-c3cc(C)on3)n2nc1OCc1ccc2c(n1)CCN(C1CCOC1)C2 (centres unmarked)" test_target="α5-GABAA receptor (Homo sapiens, UniProt P18507+P31644)" value_measured=55.8
compound=COc1cc2nnc(-c3cc(C)on3)n2nc1OCc1ccc2c(n1)CCN(C)C2=O test_target="α5-GABAA receptor (Homo sapiens, UniProt P18507+P31644)" value_measured=50.2
compound=COc1cc2nnc(-c3cc(C)on3)n2nc1OCc1cnc(OC2COC2)cn1 test_target="α5-GABAA receptor (Homo sapiens, UniProt P18507+P31644)" value_measured=46.8
compound=CCn1cnc2ccc(COc3nn4c(-c5cc(C)on5)nnc4cc3OC)nc21 test_target="α5-GABAA receptor (Homo sapiens, UniProt P18507+P31644)" value_measured=51.2
compound=COCC(C)(C)N1CCc2nc(COc3nn4c(-c5cc(C)on5)nnc4cc3OC)ccc2C1 test_target="α5-GABAA receptor (Homo sapiens, UniProt P18507+P31644)" value_measured=38.3
compound=CCOc1nccc2nc(COc3nn4c(-c5cc(C)on5)nnc4cc3OC)ccc12 test_target="α5-GABAA receptor (Homo sapiens, UniProt P18507+P31644)" value_measured=51.3
compound=COc1cc2nnc(-c3cc(C)on3)n2nc1OCc1ccc2ccccc2n1 test_target="α5-GABAA receptor (Homo sapiens, UniProt P18507+P31644)" value_measured=42.9
compound=COc1cc2nnc(-c3cc(C)on3)n2nc1OCc1ccc2ncn(C3CCOCC3)c2n1 test_target="α5-GABAA receptor (Homo sapiens, UniProt P18507+P31644)" value_measured=60.4
compound=COc1cc2nnc(-c3cc(C)on3)n2nc1OCc1cccc(C2CC2)n1 test_target="α5-GABAA receptor (Homo sapiens, UniProt P18507+P31644)" value_measured=17.6
compound=COc1cc2nnc(-c3cc(C)on3)n2nc1OCc1cccc(N2CCOCC2)n1 test_target="α5-GABAA receptor (Homo sapiens, UniProt P18507+P31644)" value_measured=26.6
compound=COCCCOc1cnc(COc2nn3c(-c4cc(C)on4)nnc3cc2OC)cn1 test_target="α5-GABAA receptor (Homo sapiens, UniProt P18507+P31644)" value_measured=41.8
compound=COc1cc2nnc(-c3cc(C)on3)n2nc1OCc1ccc2c(n1)CCN(Cc1cc(C)on1)C2 test_target="α5-GABAA receptor (Homo sapiens, UniProt P18507+P31644)" value_measured=50.4
